- Assay Target: 5-HT3 receptor (Cavia porcellus, UniProt O70212)
- Construct: from tissue; host or cells: guinea-pig ileum segments in organ bath
- Sequence (O70212 24-490 limits assumed): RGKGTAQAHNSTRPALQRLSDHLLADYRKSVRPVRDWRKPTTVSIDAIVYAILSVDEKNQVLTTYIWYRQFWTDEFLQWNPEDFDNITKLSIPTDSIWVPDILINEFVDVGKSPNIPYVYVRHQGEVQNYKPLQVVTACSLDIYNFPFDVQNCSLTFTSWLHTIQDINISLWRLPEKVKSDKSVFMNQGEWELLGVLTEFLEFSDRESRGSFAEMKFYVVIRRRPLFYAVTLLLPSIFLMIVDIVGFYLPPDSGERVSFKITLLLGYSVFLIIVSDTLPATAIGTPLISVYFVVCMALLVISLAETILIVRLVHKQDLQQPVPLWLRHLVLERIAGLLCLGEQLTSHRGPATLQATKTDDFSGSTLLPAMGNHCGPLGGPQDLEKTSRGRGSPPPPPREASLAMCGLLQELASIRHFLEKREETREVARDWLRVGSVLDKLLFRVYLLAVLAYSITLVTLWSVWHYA
- Test Details: 5-hydroxykynuramine antagonism on the guinea-pig ileum
- Assay type: cell-based, Guinea pigs
- Stated Conditions: guinea-pig ileum segments; 5-OH-K 3.10^-6 M; read-out: IC50 reducing the 5-OH-K induced effect by 50%
# IC50 annotations

{"Molecule": "COc1cc(N)c(Cl)cc1C(=O)N[C@@H]1CCNC[C@@H]1OC (stereo in doubt)", "Endpoint Unit": "nM", "IC50": 93}
{"Molecule": "COc1cc(N)c(Cl)cc1C(=O)N[C@H]1CCNC[C@H]1OC (stereo in doubt)", "Endpoint Unit": "nM", "IC50": 450}
